Every entry's value here was drawn from the nanobody polyreactivity screen of Harvey et al. (2022).

experiment: yeast display, Sf9 membrane polyspecificity reagent, FACS + sequencing; frameworks hold sequencing errors
Assay metric: polyreactivity (PSR sort gate)

Biosequence	polyreactivity (PSR sort gate)
QVQLVESGGGLVQAGGSLRLSCAASGRTFTEYAMGWYRQAPGKEREFVARIRWSDGSTYYADSVKGRFTISRDNAKNTVYLQMNSLLPEDTAVYYCAARYIETPVTVLSLMDYWGQGTQVTVSS	low polyreactivity
QVQLVESGGGLVQAGGSLRLSCAASGSTFSWNTMGWYRQAPGKERELVADIRTSGGGTYYADSVKGRFTISRDNAKNSVYLQMNSLKPEDTAVYYCNGDPKWEMVSWGQGTQVTVSS	low polyreactivity
QVQLVESGGGLVQAGGSLRLSCAASGIFRLNAMGWYRQAPGKERELVAAISWSGGSTRYADSVKGRFTISRDNAKNTVYLQMNSLKPEDTAVYYCAKKLRGWHTIITDYDYWGLGTQVTVSS	low polyreactivity
QVQLVESGGGLVQAGGTLRLTCAASGSIFSAYAMGWYRQEPGKEREFVAAITRRGGNTYYADSVKGRFTISRDNAKNTVYVQMNSLKPEDTAVYYCAAVAGGGPFDYWGQGTQVTVSS	low polyreactivity
QGQLVDSGGGLVQAAGSLRLSCDASGRTFVYNDMGWYRQAPGKERELVATISVSGCSTYYADSVKGRFTISRDNAKNTVYLQMISLKPEDTAVYYCAARRTWYEDHDYWGQGTQVTVSS	low polyreactivity

Task: Param item = `QVQLVESGGGLVQAGGSLRLSCAASGSTFGVNDMGWYRQAPWKERELVAAISRGAITNYADSVKGRFTISRDNAKNTVYLQMNSLKPEDTAVYYCAAGFVTYYVPQYKEYGYDYWGQGTQVTVSS` ; retrieve measured polyreactivity (PSR sort gate).
Output: low polyreactivity

Task: Which polyreactivity (PSR sort gate) value belongs to `QVQLVESGGGLVQAGGSLRLSCAASGSIFDYNAMGWYRQAPGKERELVAAISSGGSTYYADSVKGRFTISRDNAKNTVYLQMNSLKPEDTEVYYCAVKVWLVIQFDYWGQGTPVTVSS` ?
Output: low polyreactivity

Task: Request the reported polyreactivity (PSR sort gate) associated with `QVQLVESGGGLVQAGGSLRLSCAASGFTFWVYAMGWYRQAPGKEREFVASISWTGDTTYYADSVKGRFTISRDNAKNTVYLQMNSLKPEDTAVYYCAGDTILGYDYWGQGTQVTVSS`
Output: low polyreactivity

Task: Please report the recorded polyreactivity (PSR sort gate) for `QVQLVESGGGLVQAGGSLRLSCAASGRIFSIYAMGWYRQAPGKERELVAAIRSVGDTNYADSVKGRFTISRDNAKNTVYLQMNSLNPEDTAVYYCAAGTSDGGYHYDFWGQGSQVTVSS` .
Output: high polyreactivity

Task: Tell me the measured polyreactivity (PSR sort gate) of `QVQLVESGGGLVQAGGSLRLSCAASGSTFTYYAMGWYRQAPGKERELVAAISRRGGSTYYADSVKGRFTISRDNAKNTVYLQMNSLKPEDTAVYYCAAASHGRFYYWGQGTQVTVSS` , please.
Output: high polyreactivity

Task: // lookup polyreactivity (PSR sort gate) for `QVQLVESGGGLVQAGGSLSLSCAASGFTFRYNAMGWYRQAPGKERELVARISSTGGGTSYADSVKGRFTISRDNAKNTVYLQMNSLKPEDTAVYYCAAPVRRYPYPGRFYYWGQGTQVTVSS`
Output: low polyreactivity

Task: Entry `QVQLVESGGGLVQAGGSLRLSCAASGSIFPSNAMGWYRQAPGKERELVAGITRGGSTNYADSVKGRFTISRDNAKNTVYLQMNSLKPEDTAVYYCAADSGFDTAPYDYWGQGTQVTVSS` has what polyreactivity (PSR sort gate)?
Output: low polyreactivity

Task: Give its polyreactivity (PSR sort gate) value. Item: `QVQLVESGGGLVQAGGSLRLSCAASGNTFTWYTMGWYRQAPGKERELVAVITSDGSTYYADSVKGRFTISRDNAKNTVYLQMNSLKPEDTAVYYCNALSADWYPEEDYWGQGTQVTVSS`
Output: low polyreactivity

Task: # query: polyreactivity (PSR sort gate) of entry `QVQLVESGGGLVQAGGSLRLSCAASGSTFDVYAMGWYRQAPGKERELVATISTSGGDTYYADSVKGRFTISRDNAKNTVYLQMNSLNPEDTAVYYCNVSASYYSPDPKVLVRYDYWGQGTQVTVSS`
Output: low polyreactivity

Task: Need polyreactivity (PSR sort gate), item `QVQLVESGGGLVQAGGSHRLSCAASGRIFGRNAMGCYRQAPGKERELVATITSGGGTNYADSVKGRFTISRDNAKNTVYLQMNSLKPEDTAVYYCAATVAILRKFWMDYWGQGTQVTVSS`
Output: low polyreactivity

Task: Given the entry `QVQLVESGGGLVQAGGSLRLSCAASGSIFTTYAMGWYRQAPGKERELVAVISRRGGSTYYADSVKGRFTISRDNAKNTVYLQMNSLTPEDTADYYCNAYTYTYHRDHTDRYNYWGQGTQVTVSS` , report its measured polyreactivity (PSR sort gate).
Output: high polyreactivity

Task: Bench note: what polyreactivity (PSR sort gate) did `QLQLVESGGGLVQAGGSLRLSCAASGSIFSFYAMGGYRQAPGKERELVATITYGSGSTHYADSVKGRFTISRDNAKNTVYLQLNSLKPEDSAVYYCAGETVRYEWGDSPAALFDYWGQGTQVTVSS` show?
Output: low polyreactivity

Task: Requested field: polyreactivity (PSR sort gate). Item: `QVQLVESGGGLVQAGASLRLSCAASGFTFGTYAMGWYRQAPGKERELVAAITKSGVRTYYADSVKGRFTISRDNAKNTVYLQMNSLKPEDTAVYYCNARGHSSLSTIVDFWGQGTQVTVSS`
Output: high polyreactivity

Task: Which polyreactivity (PSR sort gate) value belongs to `QVQLVESGGGLVQAGGSLRLSCAASGSTFDYYYMGWYRQAPGKERELVAAISYSGTSTYYADSVKGRFTISRDNAKNTVYLQMNSQKPEDTAVYYCAKVFPDWYWYDYCGQGTQVTVSS` ?
Output: low polyreactivity

Task: Need polyreactivity (PSR sort gate), item `QVQLVESGGGLVQAGGSLRLSCAASGRTFLPNAMGWYRQAPGKERELVAVITSGGSTNYADSVKGRFTISRDNAKNTVYLQMNSLKPEDTAVYYCASRRWSSSQGHWGKSAGYGYWGQGTQVTVSS`
Output: low polyreactivity

Task: What value of polyreactivity (PSR sort gate) has been recorded for this entry: `QVQLVESGGGLVQAGGSRRLRCAASGRIFKNYAMGWYRQAPGKERELVAAMTWSVGSTYYADSVKGRFTISRDNAKKTVYLQMNSLKPEDTAVNYCAARRSGTYRYRYEYWGQGSQVTVSS`
Output: low polyreactivity
